Each entry below carries its measured MIC, system: B. subtilis.
Reply with just the number (in µM).

Could you please provide reported MIC for C[N+](C)(C)c1ccc(CC(=O)OCCCCCCCCn2ccc3cc(OCc4ccccc4)ccc32)cc1 ? Thanks!
3

Could you please provide reported MIC for COC(=O)c1cc2ccccc2n1CCCCCCCOC(=O)Cc1ccc([N+](C)(C)C)cc1 ? Thanks!
30

Could you please provide reported MIC for COC(=O)c1cc2ccccc2n1CCCCCCCCOC(=O)Cc1ccc([N+](C)(C)C)cc1 ? Thanks!
10

Could you please provide reported MIC for COC(=O)c1cc2cc(OCc3ccccc3)ccc2n1CCCCCCCOC(=O)c1ccc[n+](C)c1 ? Thanks!
10

Could you please provide reported MIC for COC(=O)c1cc2cc(OCc3ccccc3)ccc2n1CCCCCCCCCOC(=O)Cc1ccc([N+](C)(C)C)cc1 ? Thanks!
10

Could you please provide reported MIC for COC(=O)c1cc2cc(OCc3ccccc3)ccc2n1CCCCCCCOC(=O)Cc1ccc([N+](C)(C)C)cc1 ? Thanks!
10

Could you please provide reported MIC for COC(=O)c1cc2cc(OCc3ccccc3)ccc2n1CCCCCCCCC[n+]1ccccc1 ? Thanks!
10

Could you please provide reported MIC for COC(=O)c1cc2cc(OCc3ccccc3)ccc2n1CCCCCCCCOC(=O)c1ccc[n+](C)c1 ? Thanks!
10

Could you please provide reported MIC for COC(=O)c1cc2ccccc2n1CCCCCCCCCOC(=O)Cc1ccc([N+](C)(C)C)cc1 ? Thanks!
10

Could you please provide reported MIC for C[n+]1cccc(C(=O)OCCCCCCCCn2ccc3cc(OCc4ccccc4)ccc32)c1 ? Thanks!
3

====

# Test system: Staphylococcus epidermitis
# TEST_NAME: Bacterial growth inhibition screen in LB media (absorbance 595 nm), percent inhibition
# REPORTED_CONDITIONS: S. epidermitis; concentration screened 10 uM
PARAMETER_MEASURED: % Inhibition (%)
Reply with just the number (in %).

Could you please provide reported % Inhibition for CCCCc1ccc2[nH]c(CCCCC[n+]3cccc4ccccc43)cc2c1 ? Thanks!
9.82

Could you please provide reported % Inhibition for Cc1ccc2[nH]c(CCCCCCC[n+]3cccc4ccccc43)cc2c1 ? Thanks!
6.41

Could you please provide reported % Inhibition for COc1ccc2c(ccn2CCCCCCCOC(=O)Cc2ccc([N+](C)(C)C)cc2)c1 ? Thanks!
97.67

Could you please provide reported % Inhibition for c1ccc2[nH]c(CCCC[n+]3cccc4ccccc43)cc2c1 ? Thanks!
5.29

Could you please provide reported % Inhibition for c1ccc2[nH]c(CCCCC[n+]3cccc4ccccc43)cc2c1 ? Thanks!
9.61

Could you please provide reported % Inhibition for c1ccc(-c2ccc3[nH]c(CCC[n+]4cccc5ccccc54)cc3c2)cc1 ? Thanks!
8.91

Could you please provide reported % Inhibition for Fc1cc(F)c2[nH]c(CCCCCC[n+]3ccc4ccccc4c3)cc2c1 ? Thanks!
11.35

Could you please provide reported % Inhibition for O=C(OCCCCc1cc2cc(Oc3ccccc3)ccc2[nH]1)c1cccnc1 ? Thanks!
10.83

Could you please provide reported % Inhibition for O=C(OCCCCCCCc1cc2cc(C(=O)c3ccccc3)ccc2[nH]1)c1cccnc1 ? Thanks!
2.59

Could you please provide reported % Inhibition for COC(=O)c1ccc2ccn(CCCCCCCCC[n+]3cccc(C(=O)OC)c3)c2c1 ? Thanks!
98.50

Could you please provide reported % Inhibition for O=C(OCCCCCCCCc1cc2cc([N+](=O)[O-])ccc2[nH]1)C(c1ccccc1)c1ccccc1 ? Thanks!
16.76

Could you please provide reported % Inhibition for Fc1ccc2[nH]c(CCCCC[n+]3ccccc3)cc2c1 ? Thanks!
8.08

Could you please provide reported % Inhibition for C[n+]1cccc(C(=O)OCCCCCCCCCc2cc3cc([N+](=O)[O-])ccc3[nH]2)c1 ? Thanks!
84.23

Could you please provide reported % Inhibition for COC(=O)c1ccc2[nH]c(CCC[n+]3cccc4ccccc43)cc2c1 ? Thanks!
22.28

Could you please provide reported % Inhibition for COc1ccc2c(ccn2CCCCOC(=O)c2ccc([N+](C)(C)C)cc2)c1 ? Thanks!
4.78

Could you please provide reported % Inhibition for CC(C)c1ccc2[nH]c(CCCCCCCOC(=O)c3ccncc3)cc2c1 ? Thanks!
4.29

Could you please provide reported % Inhibition for O=[N+]([O-])c1ccc2[nH]c(CCCCC[n+]3cccc4ccccc43)cc2c1 ? Thanks!
8.77

Could you please provide reported % Inhibition for COC(=O)c1cc2cc(OC)ccc2n1CCCCCCCCC[n+]1ccccc1 ? Thanks!
90.26

====

# EXPERIMENTAL_TARGET: bacterial NAD synthetase enzyme (Bacillus subtilis, UniProt P08164)
# Sequence (P08164 2-272 limits assumed): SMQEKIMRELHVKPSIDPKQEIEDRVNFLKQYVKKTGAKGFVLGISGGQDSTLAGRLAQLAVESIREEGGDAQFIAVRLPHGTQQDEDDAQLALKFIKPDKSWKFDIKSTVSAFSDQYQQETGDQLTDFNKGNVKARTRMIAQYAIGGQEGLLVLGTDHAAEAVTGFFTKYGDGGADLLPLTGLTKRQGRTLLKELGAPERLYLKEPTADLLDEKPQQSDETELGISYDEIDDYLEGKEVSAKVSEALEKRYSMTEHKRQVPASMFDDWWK
# TEST_NAME: biochemical
# Type: biochemical
# REPORTED_CONDITIONS: compound at 0.1 mM (Table 314)
Field: % Inhibition. Provide a value for each of the compounds that follow.
Reply with just the number (in %).

Return reported % Inhibition for target or system bacterial NAD synthetase enzyme (Bacillus subtilis, UniProt P08164), item FC(F)(F)c1ccc2cc(CCC[n+]3ccccc3)[nH]c2c1 .
42.38

Return reported % Inhibition for target or system bacterial NAD synthetase enzyme (Bacillus subtilis, UniProt P08164), item FC(F)(F)c1ccc2cc(CCC[n+]3cccc4ccccc43)[nH]c2c1 .
3.64

Return reported % Inhibition for target or system bacterial NAD synthetase enzyme (Bacillus subtilis, UniProt P08164), item c1ccc(-c2ccc3[nH]c(CCCC[n+]4ccc5ccccc5c4)cc3c2)cc1 .
10.26

Return reported % Inhibition for target or system bacterial NAD synthetase enzyme (Bacillus subtilis, UniProt P08164), item Cc1ccc2[nH]c(CCC[n+]3cccc4ccccc43)cc2c1 .
4.71

Return reported % Inhibition for target or system bacterial NAD synthetase enzyme (Bacillus subtilis, UniProt P08164), item FC(F)(F)c1ccc2[nH]c(CCCCCCC[n+]3cccc4ccccc43)cc2c1 .
12.76

Return reported % Inhibition for target or system bacterial NAD synthetase enzyme (Bacillus subtilis, UniProt P08164), item COc1ccc2c(ccn2CCCCCCCOC(=O)Cc2ccc([N+](C)(C)C)cc2)c1 .
94.10

Return reported % Inhibition for target or system bacterial NAD synthetase enzyme (Bacillus subtilis, UniProt P08164), item c1ccc(C(c2ccccc2)(c2ccccc2)c2ccc3[nH]c(CCCCC[n+]4ccccc4)cc3c2)cc1 .
27.28

Return reported % Inhibition for target or system bacterial NAD synthetase enzyme (Bacillus subtilis, UniProt P08164), item Fc1cc(F)c2[nH]c(CCCCC[n+]3ccc4ccccc4c3)cc2c1 .
30.39

Return reported % Inhibition for target or system bacterial NAD synthetase enzyme (Bacillus subtilis, UniProt P08164), item FC(F)(F)c1ccc2cc(CCCCC[n+]3ccccc3)[nH]c2c1 .
12.89

====

Field: pIC50. Provide a value for each of the molecules that follow.
# EXPERIMENTAL_TARGET: bacterial NAD synthetase enzyme (Bacillus subtilis)
# TEST_NAME: biochemical
# Assay type: biochemical
Expect pIC50 as a plain number equal to -log10 of the molar concentration.

Return reported pIC50 for target or system bacterial NAD synthetase enzyme (Bacillus subtilis), item COC(=O)c1cc2cc(OCc3ccccc3)ccc2n1CCCCCCCCCOC(=O)Cc1ccc([N+](C)(C)C)cc1 [Compound 990] .
4.70

Return reported pIC50 for target or system bacterial NAD synthetase enzyme (Bacillus subtilis), item C[N+](C)(C)c1ccc(CC(=O)OCCCCCCCCn2ccc3cc(NC(=O)c4ccccc4)ccc32)cc1 [Compound 1104] .
4.21

Return reported pIC50 for target or system bacterial NAD synthetase enzyme (Bacillus subtilis), item CC(=O)c1ccccc1OCCCCCCCCOC(=O)Cc1ccc([N+](C)(C)C)cc1 [Compound 1076] .
3.87

Return reported pIC50 for target or system bacterial NAD synthetase enzyme (Bacillus subtilis), item COC(=O)c1cc2ccccc2n1CCCCCCCOC(=O)Cc1ccc([N+](C)(C)C)cc1 [Compound 984] .
4.70

Return reported pIC50 for target or system bacterial NAD synthetase enzyme (Bacillus subtilis), item COC(=O)C=Cc1cn(CCCCCCCCC[n+]2cccc(C(=O)OC)c2)c2ccccc12 [Compound 270] .
4.22

Return reported pIC50 for target or system bacterial NAD synthetase enzyme (Bacillus subtilis), item COC(=O)c1ccc[n+](CCCCCCCCCn2c(C(=O)OC)cc3ccccc32)c1 [Compound 190] .
4.30

Return reported pIC50 for target or system bacterial NAD synthetase enzyme (Bacillus subtilis), item C[n+]1cccc(C(=O)OCCCOc2ccc(C(=O)c3ccccc3)cc2)c1 [Compound 1068] .
4.20

Return reported pIC50 for target or system bacterial NAD synthetase enzyme (Bacillus subtilis), item C[n+]1cccc(CC(=O)OCCCCCCCc2cc3cc(C(=O)c4ccccc4)ccc3[nH]2)c1 [Compound 941] .
4.30

====

# EXPERIMENTAL_TARGET: bacterial NAD synthetase enzyme (Bacillus subtilis, UniProt P08164)
# TEST_NAME: biochemical
# Type: biochemical
# REPORTED_CONDITIONS: compound at 0.2 mM (Table 312A)
Note: every record was labeled by where its % Inhibition sits among bin 0 = under 7%, bin 1 = from 7% up to 30%, bin 2 = 30% and over

# classify by % Inhibition band: COC(=O)c1ccc2[nH]c(CCCCCCC[n+]3ccc4ccccc4c3)cc2c1 [Compound 598]
bin 2

# classify by % Inhibition band: COc1ccc2[nH]c(CCCCC[n+]3ccc4ccccc4c3)cc2c1 [Compound 590]
bin 1

# classify by % Inhibition band: CC(C)c1ccc2[nH]c(CCCCCCC[n+]3ccccc3)cc2c1 [Compound 322]
bin 1

# classify by % Inhibition band: Fc1ccc2[nH]c(CCCCC[n+]3ccccc3)cc2c1 [Compound 344]
bin 0

# classify by % Inhibition band: COC(=O)c1ccc2ccn(CCCCCCCCC[n+]3cccc(C(=O)OC)c3)c2c1 [Compound 222]
bin 2

# classify by % Inhibition band: CC(=O)c1ccc2[nH]c(CCCCCCC[n+]3ccc4ccccc4c3)cc2c1 [Compound 586]
bin 0

# classify by % Inhibition band: c1ccc(-c2ccc3[nH]c(CCCCCCC[n+]4ccc5ccccc5c4)cc3c2)cc1 [Compound 544]
bin 1
